The following are reported IC50 results, target or system UniProt Q9Y233.
Put down the number, then write its unit next to it.

Examples from the recorded data:
Cc1cc(Cl)c(C)n2nc([C@H]3C[C@@H]3c3nc(N4CCCC4)nn3C)nc12 : 4.98 nM
Cc1ncc(C)n2nc(CCc3nc(N4CCCC4)nn3CC3CC3)nc12 [Example 117a] : 1.32 nM
CCc1ncc(C)c2nc(CCc3nc(N4CCCC4)nn3C)nn12 : 4.9 nM
Cc1ncc(C)n2nc(CCc3nc(N4CCCC4)n[nH]3)nc12 : 1.87 nM
Cc1c(Cl)cc(C(F)(F)F)c2nc(CCc3nc(N4CCCC4)n(C)n3)nn12 : 0.44 nM
CCN(CC)c1nc(CCc2nc3c(C)ncc(C)n3n2)n(C)n1 : 50.6 nM
Cc1ncc(C)n2nc(C#Cc3nc(N4CCCC4)nn3C)nc12 : 0.8 nM
CCn1nc(N2CCCC2)nc1CCc1nc2nc(C)cc(C)n2n1 : 10.9 nM
Cc1ncc(C)n2nc(CCc3nc(N4CCC[C@@H]4C)nn3C)nc12 : 5.5 nM
Cc1ncc(C)n2nc(CCc3nc(N4CCCC4)nn3C3CC3)nc12 [Example 123a] : 2.03 nM

For Cc1ccn2nc(CCc3nc(N4CCCC4)nn3C)nc2c1[N+](=O)[O-] on UniProt Q9Y233, measured IC50 was 94.7 nM

For Cc1ncc(C)n2nc(CCc3nc(N4CC[C@@H](F)C4)nn3C)nc12 on UniProt Q9Y233, measured IC50 was 10.7 nM

For Cc1cnc(C)n2nc(CCc3nc(N4CCCC4C)nn3C)nc12 (stereo not shown) on UniProt Q9Y233, measured IC50 was 18.4 nM

For Cc1ccc2nc(CCc3nc(N4CCCC4)nn3C)nn2c1C on UniProt Q9Y233, measured IC50 was 10.2 nM

For Cc1cc(Cl)c(C)n2nc(CCc3nc(N4CCCC4)n(C)n3)nc12 on UniProt Q9Y233, measured IC50 was 0.58 nM

For Cc1c(Cl)cc(C(F)(F)F)c2nc(CCc3nc(N4CCCC4)nn3C)nn12 on UniProt Q9Y233, measured IC50 was 0.5 nM

For Cc1c(Cl)cc(C(F)(F)F)c2nc(CCc3nc(N4CCCC4)n[nH]3)nn12 on UniProt Q9Y233, measured IC50 was 0.72 nM

For COc1ccc(Cn2nc(N3CCCC3)nc2CCc2nc3c(C)ncc(C)n3n2)cc1 on UniProt Q9Y233, measured IC50 was 5 nM

For Cc1c(Br)cc(C(F)(F)F)c2nc(CCc3nc(N4CCCC4)nn3C)nn12 on UniProt Q9Y233, measured IC50 was 0.48 nM

----------
The following are reported pIC50 results, target or system human PDE10A (Homo sapiens (Human), UniProt Q9Y233).
Here pIC50 is given on a logarithmic scale as minus log10 of the concentration in mol/L.

Examples from the recorded data:
Cn1nc(N2CCCC2)nc1CCc1nc2cc(C(F)(F)F)ccn2n1 : 6.48
Cc1c(C#N)cc(Cl)c2nc(CCc3nc(N4CCCC4)nn3C)nn12 : 8.67
Cc1ncc(C)n2nc(CCc3nc(N4CCCC4)n(C4CC4)n3)nc12 [Example 123b] : 8.09

The measured pIC50 associated with Cc1c(Cl)cc(OCCN2CCOCC2)c2nc(CCc3nc(N4CCCC4)nn3C)nn12 reads 8.86
